Biological target: TWEAKR (TNFRSF12A, FN14), human, on tumor cell lines (human, UniProt Q9NP84 28-129)
Assay: cell-based or functional assay
READOUT_KIND: Fold induction of Caspase 3/7, NCI-H322 cells, 100 ug/ml

# BINDER, REPORTED_RESULT
records = [
    ("TPP-1854 (antibody, human IgG1, kappa, V domains shown, Human IgG1) VH: EVQLLESGGGLVQPGGSLRLSCAASGFTFSPYPMIWVRQAPGKGLEWVSYISPSGGKTHYADSVKGRFTISRDNSKNTLYLQMNSLRAEDTAVYYCARGGDTYFDYFDYWGQGTLVTVSS VL: DIQMTQSPATLSASVGDRVTITCRASQSISGYLNWYQQKPGKAPKLLIYNASSLQSGVPSRFSGSGSGTDFTLTISSLQPEDFATYYCQQSYTSPFITFGPGTKVEIKR", "1.98 fold"),
    ("P4A8(TPP-1324) (antibody, human IgG1, kappa, V domains shown, Human IgG1; variable domains from WO2009/140177 with constant region added) VH: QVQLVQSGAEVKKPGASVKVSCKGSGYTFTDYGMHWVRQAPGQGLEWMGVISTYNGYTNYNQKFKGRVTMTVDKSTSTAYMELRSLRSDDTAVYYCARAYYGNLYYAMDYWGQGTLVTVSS VL: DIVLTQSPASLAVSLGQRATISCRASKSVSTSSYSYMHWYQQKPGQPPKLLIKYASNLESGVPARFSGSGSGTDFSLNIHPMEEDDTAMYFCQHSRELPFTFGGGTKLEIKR", "1.02 fold"),
    ("TPP-1857 (antibody, human IgG1, kappa, V domains shown, Human IgG1) VH: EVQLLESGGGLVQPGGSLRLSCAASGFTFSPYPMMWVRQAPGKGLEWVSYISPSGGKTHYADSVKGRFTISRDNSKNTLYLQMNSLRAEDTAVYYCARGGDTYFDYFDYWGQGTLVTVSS VL: DIQMTQSPATLSASVGDRVTITCRASQSISGYLNWYQQKPGKAPKLLIYNASSLQSGVPSRFSGSGSGTDFTLTISSLQPEDFATYYCQQSYTSPGITFGPGTKVEIKR", "1.89 fold"),
    ("TPP-1853 (antibody, human IgG1, kappa, V domains shown, Human IgG1) VH: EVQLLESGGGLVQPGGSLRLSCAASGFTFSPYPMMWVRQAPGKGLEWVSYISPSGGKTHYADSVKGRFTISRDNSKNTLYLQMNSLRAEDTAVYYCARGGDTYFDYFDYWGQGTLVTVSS VL: DIQMTQSPATLSASVGDRVTITCRASQSISSYLNWYQQKPGKAPKLLIYNASSLQSGVPSRFSGSGSGTDFTLTISSLQPEDFATYYCQQSYTSPGITFGPGTKVEIKR", "1.94 fold"),
    ("TPP-1858 (antibody, human IgG1, kappa, V domains shown, Human IgG1) VH: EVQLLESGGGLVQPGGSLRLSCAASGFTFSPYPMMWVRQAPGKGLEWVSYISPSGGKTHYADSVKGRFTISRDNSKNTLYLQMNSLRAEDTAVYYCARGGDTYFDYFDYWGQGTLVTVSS VL: DIQMTQSPATLSASVGDRVTITCRASQSISSYLNWYQQKPGKAPKLLIYNASSLQSGVPSRFSGSGSGTDFTLTISSLQPEDFATYYCQQSYTSPFITFGPGTKVEIKR", "2.01 fold"),
]
